B1: ADD1 (parent)
chain: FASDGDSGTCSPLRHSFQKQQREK

variants of: B1; assay: protein stability index of a GFP-peptide fusion (GPS, HEK-293T) (PSI 1-6); higher = more stable; conditions: c terminus: a fixed tail appended;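 note: lentivirally expressed fusions sorted by FACS into six bins by GFP to DsRed ratio, PSI derived from sequencing read proportions per bin multiplied by bin number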
observable: protein stability index
Give bare numbers.

Answered cases to consult:
entry_sequence="FASDGDSGRCSPLRHSFQKQQREK [T9R]" reported_value=3.33
entry_sequence="MASDGDSGTCSPLRHSFQKQQREK [F1M]" reported_value=5.2
entry_sequence="FASDEDSGTCSPLRHSFQKQQREK [G5E]" reported_value=4.74
entry_sequence="FASDGDSGTCSPLNHSFQKQQREK [R14N]" reported_value=4.46
entry_sequence="FASDGDSGTCSPLRHSSQKQQREK [F17S]" reported_value=4.47

List the reported protein stability index of each variant below.
1. RASDGDSGTCSPLRHSFQKQQREK [F1R]
2. FASDGDSGTCSPLRHSPQKQQREK [F17P]
3. FASDGDSGTCSPLRHSFQKQCREK [Q21C]
4. FASDGDSGTCSPVRHSFQKQQREK [L13V]
5. FASDGDLGTCSPLRHSFQKQQREK [S7L]
6. FASDGDSGTCSPLRHSFQKPQREK [Q20P]
7. FASDGDSGTCSPLRHSFMKQQREK [Q18M]

Data returned:
[5.07, 4.82, 3.57, 5, 2.11, 3.65, 3.13]

Hi there! I need protein stability index for each item below, if you can.
1. FASDGDSGTCSPLRHSFQQQQREK [K19Q]
2. FASDGDSGTCSGLRHSFQKQQREK [P12G]

Data returned:
[4.53, 4.73]

I have 4 variants here; please give me protein stability index for each one.
1. FASDGDWGTCSPLRHSFQKQQREK [S7W]
2. GASDGDSGTCSPLRHSFQKQQREK [F1G]
3. FASDKDSGTCSPLRHSFQKQQREK [G5K]
4. FASDIDSGTCSPLRHSFQKQQREK [G5I]

Data returned:
1. 2.06
2. 4.99
3. 3.76
4. 3.68

Go through the items and report each one's protein stability index.
1. FASDADSGTCSPLRHSFQKQQREK [G5A]
2. FASDGDSGTCSLLRHSFQKQQREK [P12L]
3. FASDGNSGTCSPLRHSFQKQQREK [D6N]
4. FASDGDSGTCSPKRHSFQKQQREK [L13K]

Data returned:
1. 4.17
2. 3.88
3. 3.18
4. 4.57
